Reported ED50 values follow for various molecules
- Species on record: Mus musculus
- method: Agonistic activity by mouse acetic acid writhing test.
- Assay type: functional
API: value field is a number in mg/kg; no unit string.

Some solved cases for reference:
{"columns": ["molecule", "unitAbbrev", "ED50"],
 "data": [
  ["CCCCCC(=O)C1CC2C3Cc4ccc(OC)c5c4C2(CCN3C)C(O5)C1=O (centres undefined)", "mg/kg", 4],
  ["CCCC(=O)C1CC2C3Cc4ccc(O)c5c4C2(CCN3C)C(O5)C1=O (centres undefined)", "mg/kg", 5.2],
  ["CC(=O)C1CC2C3Cc4ccc(O)c5c4C2(CCN3CC2CC2)C(O5)C1=O (centres undefined)", "mg/kg", 4],
  ["COc1ccc2c3c1OC1C(=O)CCC4C(C2)N(CC2CC2)CCC314 (centres undefined)", "mg/kg", 17],
  ["COc1ccc2c3c1OC1C(=O)C(C(C)=O)CC4C(C2)N(C)CCC314 (centres undefined)", "mg/kg", 23.5]
]}

# get_value(readout='ED50', item= CCCC(=O)C1CC2C3Cc4ccc(OC)c5c4C2(CCN3CC2CC2)C(O5)C1=O (centres undefined) )
2.8

* * *

Reported ED50 values follow for various compounds
- Species: Mus musculus
- method: Agonistic activity by mouse acetic acid writhing test.
- Type: functional
API: value field is a number in mg/kg; no unit string.

# get_value(readout='ED50', item= CO[C@@]12CC[C@@]3(C[C@@H]1[C@](C)(O)C(C)(C)C)[C@H]1Cc4ccc(O)c5c4[C@@]3(CCN1CC1CC1)[C@H]2O5 )
0.13

O=C1CCC2C3Cc4ccc(O)c5c4C2(CCN3CC2CC2)C1O5 (stereo not drawn) , same question.
1.3

* * *

Reported ED50 values follow for various molecules
- Species on record: Mus musculus
- method: Agonistic activity by mouse acetic acid writhing test.
- Type: functional

Some solved cases for reference:
{"columns": ["molecule", "ED50"],
 "data": [
  ["CCCCC(=O)C1CC2C3Cc4ccc(OC)c5c4C2(CCN3CC2CC2)C(O5)C1=O (stereo not drawn)", "> 10 mg/kg"],
  ["COc1ccc2c3c1OC1C(=O)C(C(C)=O)CC4C(C2)N(CC2CC2)CCC314 (stereo not drawn)", "> 10 mg/kg"]
]}

# get_value(readout='ED50', item= O=C(c1ccc(F)cc1)C1CC2C3Cc4ccc(O)c5c4C2(CCN3CC2CC2)C(O5)C1=O (stereo not drawn) )
> 10 mg/kg

* * *

- Species: Mus musculus
- method: Agonistic activity by mouse acetic acid writhing test.
- Type: functional
Reported ED50 values follow for various compounds

Some solved cases for reference:
{"columns": ["compound", "ED50"],
 "data": [
  ["CN1CC[C@]23c4c5ccc(O)c4O[C@H]2[C@@H](O)C=C[C@H]3[C@H]1C5", "0.79 mg/kg"],
  ["COc1ccc2c3c1O[C@H]1C(=O)CC[C@H]4[C@@H](C2)N(C)CC[C@]314 [HYDROCODONE]", "1.06 mg/kg"]
]}

Proceeding to the next compound to report its ED50.
# get_value(readout='ED50', item= CCCCCCC(=O)C1CC2C3Cc4ccc(OC)c5c4C2(CCN3CC2CC2)C(O5)C1=O.Cl (stereo unspecified) )
> 10 mg/kg

* * *

- Species: Mus musculus
- method: Agonistic activity by mouse acetic acid writhing test.
- Assay type: functional
Reported ED50 values follow for various compounds

Some solved cases for reference:
{"columns": ["compound", "ED50"],
 "data": [
  ["CCC(=O)C1CC2C3Cc4ccc(OC)c5c4C2(CCN3CC2CC2)C(O5)C1=O (stereo not drawn)", "> 10 mg/kg"],
  ["CN1CC[C@]23c4c5ccc(O)c4O[C@H]2C(=O)CC[C@H]3[C@H]1C5 [HYDROMORPHONE]", "0.08 mg/kg"]
]}

Proceeding to the next compound to report its ED50.
# get_value(readout='ED50', item= CCCCCCC(=O)C1CC2C3Cc4ccc(O)c5c4C2(CCN3CC2CC2)C(O5)C1=O (stereo not drawn) )
0.4 mg/kg
